assay: enzyme kinetic measurements with purified protein; assay type: biochemical; details: 0-1280 uM substrate, read-out: Km Haloxyfop
Reported values of Km for individual entries
MEASUREMENT LABEL: Km (µM)

INSERT INTO measurements (molecule, measurement_label, numeric_value) VALUES
  ('MON-HT53: engineered oxygenase protein, amino acid sequence SEQ ID NO:7 (protein) MHAALSPLSQRFERIAVQPLTGVLGAEITGVDLREPLSDSTWNEILDAFHTYQVIYFPGQAITNEQHIAFSRRFGPVDPVPLLKSIEGYPEVQMIRREANESGRVIGDDWHSDSTFLDAPPAAVVMRAIDVPEHGGDTGFLSMYTAYDALSDGLKKLISGLNVVHSATRVFGSLYQAQNRRFSNTSVKVMDVDAGDRETVHPLVVTHPGSGRKGLYVNQVYCQRIEGMSEKESEPLLSFLFAHATKPEFTCRVRWKKDQVLVWDNLCTMHYAINDYHGQTRILHRTTVGGVRPAR', 'Km', 290),
  ('MON-HT54: engineered oxygenase protein, amino acid sequence SEQ ID NO:9 (protein) MHAALSPLSQRFERIAVQPLTGVLGAEITGVDLREPLDDSTWNEILDAFHTYQVIYFPGQAITNEQHIAFSRRFGPVDPVPLLKSIEGYPEVQMIRREANESGRVLGDDWHTDSTFLDAPPAAVVMRAIDVPEHGGDTGFLSMYTAYDALSDGLKKLISGLNVVHSATRVFGSLYQAQNRRFSNTSVKVMDVADGDRETVHPLVVTHPGSGRKGLYVNQVYCQRIEGMSEKESEPLLSFLFAHATKPEFTCRVRWKKDQVVVWDNLCTMHYAINDYHGQTRILHRTTVGGVRPAR', 'Km', 380),
  ('MON-HT52: engineered oxygenase protein, amino acid sequence SEQ ID NO:4 (protein) MHAALSPLSQRFERIAVQPLTGVLGAEITGVDLREPLDDSTWNEILDAFHTYQVIYFPGQAITNEQQIAFSRRFGPVDPVPLLKSIEGYPEVQMIRREANESGRVIGDDWHTDSTFLDAPPAAVVMRAIDVPEHGGDTGFLSMYTAYDALSDGLKKLISGLNVVHSATRVFGSLYQAQNRRFSNTSVKVMDVDAGDRETVHPLVVTHPGSGRKGLYVNQVYCQRIEGMSEKESEPLLSFLFAHATKPEFTCRVRWKKDQVLVWDNLCTMHYAINDYHGQTRILHRTTVGGVRPAR', 'Km', 280),
  ('MON-HT55: engineered oxygenase protein, amino acid sequence SEQ ID NO:11 (protein) MHAALSPLSQRFERIAVQPLTGVLGAEITGVDLREPLDDSTWNEILDAFHTYQVIYFPGQAITNEQHIAFSRRFGPVDPVPLLKSIEGYPEVQMIRREANESGRVIGENWHTDSTFLDAPPAAVVMYAKEIPPYGGDTLFTSMYTAWETLSPTMQATIEGLNVVHSATRVFGSLYQAQNRRFSNTSVKVMDVDAGDRETVHPLVVTHPETGRKGLYVNQVYCQRIEGMSEKESEPLLSFLFAHATKPEFTCRVRWQEGDVLVWDNLCTQHYAVPDYAGKFRYLTRTTVGGVRPAR', 'Km', 450),
  ('MON-HT51: engineered oxygenase protein, amino acid sequence SEQ ID NO:1 (protein) MHAALSPLSQRFERIAVQPLTGVLGAEITGVDLREPLSDSTWNEILDAFHTYQVIYFPGQAITNEQHIAFSRRFGPVDPVPLLKSIEGYPEVQMIRREANESGRVIGDDWHTDSSFLDAPPAAVVMRAIDVPEHGGDTGFLSMYTAYDALSDGLKKLISGLNVVHSATRVFGSLYQAQNRRFSNTSVKVMDVADGDRETVHPLVVTHPGSGRKGLYVNQVYCQRIEGMSEKESEPLLSFLFAHATKPEFTCRVRWKKDQVLVWDNLCTMHYAINDYHGQTRILHRTTVGGVRPAR', 'Km', 250);
